# Test system: SF-268
# measurement_description: NCI tumour cell line growth inhibition, 48 h
The source made the active and inactive calls. No stated cut-off is given here; in the data, active = GI50 up to about 1.1 µM and inactive = higher.
result_type: GI50

Use these answered entries as a reference point.
O=C1c2ccccc2C(C2c3ccccc3C(=O)c3cc(Br)ccc32)c2ccc(Br)cc21 (configuration not stated) :: > 100 µM (inactive)
O=c1c2ccccc2nc(N/N=C/c2ccccc2O)n1-c1ccccc1 :: 2.13 µM (inactive)
CC1=NNC(=O)C1C1CC(c2c[nH]c3ccccc23)=NN(C(N)=O)C1=O (configuration not stated) :: > 100 µM (inactive)
COc1ccc(-n2nnnc2C2(Nc3ccccc3)CCN(Cc3ccccc3)CC2)cc1 :: > 10 µM (inactive)
CN(C)/C=N/c1cc(=O)n(C)c(=O)n1C :: > 100 µM (inactive)

Asked: Provide only the value of recorded GI50 for COc1cc(-c2[o+]c3cc(O)cc(O)c3cc2O)cc(O)c1O
Given back: > 100 µM (inactive)

Asked: Provide only the value of recorded GI50 for C=CCn1c(=O)c(C(=O)Nc2nc(C34CC5CC(CC(C5)C3)C4)cs2)c(O)c2ccccc21
Given back: > 10 µM (inactive)

---

# Test system: A549
# measurement_description: NCI tumour cell line growth inhibition, 48 h
Activity calls are given as the source filed them. Rule as the data show it: active = GI50 up to about 1.1 µM and inactive = higher.
Give one outcome, nothing more. List: active, inactive

Use these answered entries as a reference point.
COc1cc(O)c2c(=O)c3c(C)cccc3n(C)c2c1 :: inactive
CCC(C)[C@@H](NCc1ccccc1)[C@H](OCc1ccccc1)[C@@H]1COC(C)(C)O1 (stereo not given in full) :: inactive
COc1ccc(/N=c2/[nH]c(N)c(C(=O)c3ccc(OC)cc3)s2)cc1 :: active

Asked: Per the assay record, what outcome was assigned to CC(=O)n1ccc2c(Cl)ncnc21 ?
Given back: inactive

Asked: Per the assay record, what outcome was assigned to C=C1C(=O)OC2C=C(C)CC3C=C(CCC=C(C)CCC12)C(=O)O3 (stereo not given) ?
Given back: inactive

---

# Test system: ACHN
# measurement_description: NCI tumour cell line growth inhibition, 48 h
Active and inactive are the calls of the source. No stated cut-off is given here; in the data, active = GI50 up to about 1.1 µM and inactive = higher.
Give one outcome, nothing more. List: t (active), f (inactive)

Use these answered entries as a reference point.
N/C(=N\c1ccc(Cl)cc1)NS(=O)(=O)c1cc(Cl)c(Oc2ccc([N+](=O)[O-])cc2Cl)c(Cl)c1 :: f
FC1(F)SC2CCCCCCCCCCC2C1(F)F (configuration not stated) :: f
CCOc1ccc2c(c1)[n+]([O-])c(-c1ccc([N+](=O)[O-])cc1)c(N)[n+]2[O-] :: f
NC(=O)C12CC3CC(CC(F)(C3)C1)C2 :: f
CCOc1ccc2nc(NC(=O)C(=O)C(C(=O)c3ccccc3F)C3OC(=O)c4ccccc43)sc2c1 (configuration not stated) :: f
CCOC(=O)CCC(NC(=O)c1ccc(Oc2nc3ccccc3nc2-c2ccccc2)cc1)C(=O)OCC (configuration not stated) :: f
COc1cc(/C=C/C(=O)CC(=O)/C=C/c2cc(OC)c(O)c(OC)c2)cc(OC)c1O :: f
Cc1c2n(c3ccccc13)S(=O)(=O)c1ccccc1-2 :: f
CC(C)CCCCCCCCCCCCC(=O)NCC(=O)NC1C(O)C(O)C(Nc2[nH]cnc3ncnc2-3)OC1C(O)CO (configuration not stated) :: t
O=C(OCC(Cl)(Cl)Cl)N1CC[C@@H](C2CCCCC2)C1 :: f

Asked: Per the assay record, what outcome was assigned to N#Cc1ccc(N2CCOCC2)cc1 ?
Given back: f

Asked: Per the assay record, what outcome was assigned to COc1cc2nc(-c3ccccc3)cc(O)c2cc1OC ?
Given back: f

Asked: Per the assay record, what outcome was assigned to Cc1ccc(C2=Nn3c(nc4sc5c(c4c3=O)CCCC5)SC2)cc1 ?
Given back: f

Asked: Per the assay record, what outcome was assigned to COc1ccc(C(c2c(O)c3ccccc3n(C)c2=O)c2c(O)c3ccccc3n(C)c2=O)cc1 ?
Given back: f

Asked: Per the assay record, what outcome was assigned to O=P(c1ccccc1)(c1ccccc1)N1O[C@@H](c2ccccc2)C=C[C@H]1c1ccccc1 ?
Given back: f

Asked: Per the assay record, what outcome was assigned to C=C(CN(C)C)C(=O)c1ccc(OC2OC(COC(C)=O)C(OC(C)=O)C(OC(C)=O)C2OC(C)=O)cc1 (configuration not stated) ?
Given back: f

---

# Tested on: NCI-H23
# measurement_description: NCI tumour cell line growth inhibition, 48 h
The source made the active and inactive calls. Rule as the data show it: active = GI50 up to about 1.1 µM and inactive = higher.
Give one outcome, nothing more. List: active, inactive

CC(=O)OC1C(O)C(C)OC(OC(=O)C2CCC3C(C2)OC2(CC(OC(=O)/C=C/c4ccccc4)C(C)CO2)C32CO2)C1OC1OC(C)C(O)C(O)C1O (stereo not given) :: active
CC[C@@]1(O)C(=O)OCc2c1cc1n(c2=O)Cc2c-1nc1ccccc1c2/C=N/NC(=O)c1ccc(N)cc1 :: active
C[N+](C)(C)Cc1c(CC#N)[nH]c2ccccc12 :: inactive
CCOC(=O)C(C#N)C1=CC(=O)C(=O)c2ccc(O)cc21 (stereo not given) :: inactive
COC(=O)[C@H](C)[C@@H]1CC[C@](C)(CCC2=C(C)CCCC2(C)C)OO1 :: inactive

Asked: Per the assay record, what outcome was assigned to O=C1C2=Nc3ccccc3C(O)N2c2ccccc21 (stereo not given) ?
Given back: inactive

Asked: Per the assay record, what outcome was assigned to Cc1ccc(NC2=CC(=O)C(NO)c3ccccc32)cc1 (stereo not given) ?
Given back: inactive

---

# Test system: LOX IMVI
# measurement_description: NCI tumour cell line growth inhibition, 48 h
The source made the active and inactive calls. Cut-off read from the data, not from the text of the source: active = GI50 up to about 1.1 µM and inactive = higher.
Give one outcome, nothing more. List: active, inactive

Use these answered entries as a reference point.
COc1cc2nc(-c3ccccc3)cc(O)c2cc1OC :: inactive
O=C(O)c1nc2ccccc2nc1Nc1ccc(F)cc1 :: inactive

Continue with the molecule presented below.
Asked: Per the assay record, what outcome was assigned to CC1=C(C#N)C2C(=C(C)N1)C(N)=Nc1ccccc12 (stereo unspecified) ?
Given back: inactive

---

# Test system: U-251
# measurement_description: NCI tumour cell line growth inhibition, 48 h
Activity calls are given as the source filed them. Cut-off read from the data, not from the text of the source: active = GI50 up to about 1.1 µM and inactive = higher.
Give one outcome, nothing more. List: 1 (active), 0 (inactive)

CCOC(=O)C(=O)Nc1c(C)cccc1C(C)(C)C :: 0
CC[C@@]1(O)C(=O)OCc2c1cc1n(c2=O)Cc2c-1nc1ccccc1c2/C=N/NC(=O)c1ccc(N)cc1 :: 1
CC12Cc3cc4c(cc3C1(c1ccc([N+](=O)[O-])cc1)OCCO2)OCO4 (configuration not stated) :: 0
O=C1OC(c2ccccc2)(c2ccccc2)CC1CN1CCOCC1 (configuration not stated) :: 0
COC(=O)CC(=O)Nc1sccc1S(=O)(=O)c1ccccc1 :: 0
COc1ccc(/C(Cl)=C(\C=N/O)c2ccc(OC)c(OC)c2)cc1OC :: 0
CC(C)=CC(O)C/C(C)=C/CC/C(C)=C/CCC1(C)C(CCCO)/C(=C(/C)C=O)CCC1(C)O (configuration not stated) :: 0
O=C1Nc2ccc(Br)cc2/C1=N/N1C(=O)C(=O)N(C2CCCCC2)C1=S :: 0
COc1cc(C(=O)C/C(CCC(=O)Nc2ccc(Cl)cc2C)=N/NC(=O)C(N)=O)ccc1O :: 0
NC1=C(Br)C(=O)c2ncccc2C1=O :: 1

Asked: Per the assay record, what outcome was assigned to Cc1c2n(c3ccccc13)S(=O)(=O)c1ccccc1-2 ?
Given back: 0

Asked: Per the assay record, what outcome was assigned to CNC(=O)N(C)COC ?
Given back: 0

Asked: Per the assay record, what outcome was assigned to O=C(OCC(Cl)(Cl)Cl)N1CC[C@@H](C2CCCCC2)C1 ?
Given back: 1

Asked: Per the assay record, what outcome was assigned to c1ccc2c3c([nH]c2c1)C1CCCN1CC3 (configuration not stated) ?
Given back: 0

Asked: Per the assay record, what outcome was assigned to C/C=C1\NC(=O)[C@H](Cc2ccccc2)NC(=O)[C@@H](C(C)C)NC(=O)[C@@H]([C@@H](C)CC)NC(=O)[C@H](NC(=O)[C@H](NC(=O)[C@H](CCCN)NC(=O)[C@H]2CCCN2C(=O)[C@H](NC(=O)[C@@H](NC(=O)[C@@H](NC(=O)[C@H](NC(=O)CCCC(C)C)C(C)C)[C@@H](C)O)C(C)C)C(C)C)[C@@H](C)CC)[C@@H](C)OC(=O)[C@H](C(C)C)NC1=O ?
Given back: 1

Asked: Per the assay record, what outcome was assigned to COc1ccc2cc(NC(=O)Nn3cnnc3)ccc2c1 ?
Given back: 0

Asked: Per the assay record, what outcome was assigned to O=Cc1c(O)c(C(=O)Nc2ccc3[nH]c(=O)[nH]c3c2)cc2ccccc12 ?
Given back: 0

Asked: Per the assay record, what outcome was assigned to Cc1c(C)c2c(c(N)c1C#N)C(=O)N(N)C2=O ?
Given back: 0

Asked: Per the assay record, what outcome was assigned to O=C(O)c1nc2ccccc2nc1Nc1ccc(F)cc1 ?
Given back: 0

Asked: Per the assay record, what outcome was assigned to CC(=O)n1c(COS(C)(=O)=O)nc2ccccc21 ?
Given back: 0

Asked: Per the assay record, what outcome was assigned to C=C(CN(C)C)C(=O)c1ccc(OC2OC(COC(C)=O)C(OC(C)=O)C(OC(C)=O)C2OC(C)=O)cc1 (configuration not stated) ?
Given back: 0

Asked: Per the assay record, what outcome was assigned to COC(=O)[C@@]12CN(C)[C@@H](C(C)(C)C)N1C(=O)OC2c1ccccc1 (some centres not stated) ?
Given back: 0
